assayed_system: T1, MPDZ_5, O75970
T1 sequence (O75970 695-796, limits assumed, looked up): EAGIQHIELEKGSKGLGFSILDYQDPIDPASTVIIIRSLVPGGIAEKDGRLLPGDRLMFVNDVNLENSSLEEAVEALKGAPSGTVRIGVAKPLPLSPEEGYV
procedure_summary: holdup assay
Set-up: key: below the threshold = too weak to quantify, mostly under pKd 3.1 to 4
study_conditions: plain residues with an end cap or a label only (N-terminal biotin on a linker: ttds)
recorded_endpoint: pKd

Known pKd results, listed for orientation:
>>> val("IDNDTESTAL [ARHGAP17, Q68EM7]")
"below the threshold"
>>> val("SVWLRKETRV [CYSLTR2, Q9NS75]")
3.36
>>> val("SSRTRRETQL [HPV16-E6, P03126]")
3.67
>>> val("RSLEEEESQL [GRASP, Q7Z6J2]")
3.53
>>> val("GQDSREETQL [KCNT2, Q6UVM3]")
"below the threshold"
>>> val("TVASEKESVM [SLC1A5, Q15758]")
"below the threshold"

In: Which value of pKd has been reported for VLRLQSETSV [VANGL1, Q8TAA9] in the records?
Out: below the threshold

In: Which value of pKd has been reported for PKTPPTDTSV [KIR3DL3, Q8N743] in the records?
Out: below the threshold

In: Which value of pKd has been reported for ERKLSSESQV [LRP4, O75096] in the records?
Out: below the threshold
